test-target: Sortase A (Staphylococcus aureus, UniProt Q9S446)
Sequence (Q9S446 whole entry): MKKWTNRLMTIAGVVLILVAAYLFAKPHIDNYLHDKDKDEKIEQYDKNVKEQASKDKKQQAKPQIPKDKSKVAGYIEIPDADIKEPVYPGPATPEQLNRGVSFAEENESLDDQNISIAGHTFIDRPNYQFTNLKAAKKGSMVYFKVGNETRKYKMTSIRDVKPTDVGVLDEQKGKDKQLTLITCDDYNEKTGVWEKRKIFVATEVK
method-notes: Inhibition of Staphylococcus aureus ATCC 25904 Sortase A protease expressed in Escherichia coli BL21 expression system using Dabcyl-QALPETGEE-Edans as substrate incubated for 30 mins by FRET assay
endpoint-name: pIC50
In simple prose, pIC50 is minus the logarithm base ten of a concentration in moles per litre.

Find pIC50 (Sortase A (Staphylococcus aureus, UniProt Q9S446)) for the entry "C[C@H]1O[C@@H](Oc2c(-c3ccc(O)c(O)c3)oc3cc(O)cc(O)c3c2=O)[C@H](O)[C@H](O)[C@H]1O" 4.15

---

test-target: Fucose-binding lectin PA-IIL (Pseudomonas aeruginosa (strain ATCC 15692 / DSM 22644 / CIP 104116 / JCM14847 / LMG 12228 / 1C / PRS 101 / PAO1), UniProt Q9HYN5)
Sequence (Q9HYN5 1-115): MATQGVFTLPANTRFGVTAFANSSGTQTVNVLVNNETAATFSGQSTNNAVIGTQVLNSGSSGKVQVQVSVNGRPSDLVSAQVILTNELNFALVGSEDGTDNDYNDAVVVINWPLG
method-notes: Inhibition of Pseudomonas aeruginosa PA14 LecB incubated for 22 to 24 hrs by fluorescence polarization based competitive binding analysis
endpoint-name: IC50 (µM)
Answer in µM, number only, no unit symbol.

I'd like to know its IC50. The molecule in question is "Cc1cc(C)c(S(=O)(=O)NC[C@H]2O[C@@H](C)[C@@H](O)[C@@H](O)[C@@H]2O)c(C)c1" 0.34

I'd like to know its IC50. The molecule in question is "C[C@@H]1O[C@H](CNC(=O)/C=C/c2ccccc2)[C@@H](O)[C@H](O)[C@@H]1O" 2.5
